# System: U2OS
# assay explanation: Multiplex assay against U2OS
# Type: toxicity, cell-based
# test conditions: human, 24 h, 1 µM, compound concentration 1 uM, replicate 2
property label: Population Healthy Nuclei (%)
Express it in %; write the number only.

Exercise: What value of Population Healthy Nuclei (%) on U2OS does O=C(Nc1ccc(-c2ccnc(Nc3ccc(N4CCOCC4)cc3)n2)cc1)[C@@H]1CCCN1 have?
Solution: 85

Exercise: Under U2OS: Population Healthy Nuclei (%) value of O=C1N/C(=N/c2ccccc2F)S/C1=C\c1ccc(C(=O)O)cc1 ?
Solution: 85

Exercise: For U2OS, provide Population Healthy Nuclei (%) of CCCS(=O)(=O)c1nc(NC2CC2)cc(-c2ccc3c(ccn3C3CC(C)(C)NC(C)(C)C3)c2)n1 please.
Solution: 66

Exercise: Please tell me: Population Healthy Nuclei (%) of CN1CCN(C(=O)C(C)(C)c2ccc(C(=O)Nc3cn4cc(-c5cc(C(C)(C)C)cc(C(C)(C)C)c5)ccc4n3)cc2)CC1 [T3-CLK-N] , system U2OS?
Solution: 89

Exercise: // fetch U2OS Population Healthy Nuclei (%) for CNC(=O)c1ccc(Nc2nc(OC3CCCC3)c3c(-c4ccc5nc(C)oc5c4)c[nH]c3n2)c(OC)c1
Solution: 48

These data points were gathered from ChEMBL document CHEMBL4689842.
